Where do the numbers come from? From paper PMC6262012.

# Protocol Text: Pharmacokinetic studies in rats
# Format: in vivo
# Experimental Context: male, Sprague Dawley, rat, in vivo, po, 20 mg/kg
Assay Metric: Tmax (h)
API: value field is a number in h; no unit string.

Entry under review: O=C(Nc1nc(-c2ccccn2)cs1)c1ccc(Cl)s1 [IMB-T130] . Reported Tmax?
1.5

====

# Protocol Text: Pharmacokinetic studies in rats
# Type: in vivo
# Experimental Context: male, Sprague Dawley, rat, in vivo, iv, 5 mg/kg
Assay Metric: clearance (mL/min/kg)
API: value field is a number in mL/min/kg; no unit string.

Entry under review: O=C(Nc1nc(-c2ccccn2)cs1)c1ccc(Cl)s1 [IMB-T130] . Reported clearance?
83.2

====

# Protocol Text: Pharmacokinetic studies in rats
# Assay type: in vivo
# Experimental Context: male, Sprague Dawley, rat, in vivo, po, 20 mg/kg
Assay Metric: AUC(0-t) (ng·h/mL)
API: value field is a number in ng·h/mL; no unit string.

Entry under review: O=C(Nc1nc(-c2ccccn2)cs1)c1ccc(Cl)s1 . Reported AUC(0-t)?
0.55

====

# Protocol Text: Pharmacokinetic studies in rats
# Format: in vivo
# Experimental Context: male, Sprague Dawley, rat, in vivo, iv, 5 mg/kg
Assay Metric: Vd (L/kg)
API: value field is a number in L/kg; no unit string.

Entry under review: O=C(Nc1nc(-c2ccccn2)cs1)c1ccc(Cl)s1 . Reported Vd?
14.9

====

# Protocol Text: Pharmacokinetic studies in rats
# Type: in vivo
# Experimental Context: male, Sprague Dawley, rat, in vivo
Assay Metric: bioavailability (%)
API: value field is a number in %; no unit string.

Entry under review: O=C(Nc1nc(-c2ccccn2)cs1)c1ccc(Cl)s1 [IMB-T130] . Reported bioavailability?
12.8

====

# Target Under Test: Mycobacterium tuberculosis 3-dehydroquinate synthase (MtDHQS) (Mycobacterium tuberculosis, UniProt P9WPX9)
# Sequence (P9WPX9 whole entry): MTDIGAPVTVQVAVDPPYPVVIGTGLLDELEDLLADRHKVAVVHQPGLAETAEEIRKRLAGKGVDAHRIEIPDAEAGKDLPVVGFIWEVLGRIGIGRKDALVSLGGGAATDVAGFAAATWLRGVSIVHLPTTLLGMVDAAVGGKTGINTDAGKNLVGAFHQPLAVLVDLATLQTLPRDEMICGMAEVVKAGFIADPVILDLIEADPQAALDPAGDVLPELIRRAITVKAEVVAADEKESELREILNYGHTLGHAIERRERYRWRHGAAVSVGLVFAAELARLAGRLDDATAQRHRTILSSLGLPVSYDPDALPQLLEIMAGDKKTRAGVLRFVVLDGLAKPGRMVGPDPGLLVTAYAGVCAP
Assay Metric: pIC50
A value of pIC50 is the negative decimal logarithm of a concentration given in moles per litre.

Entry under review: O=C(Nc1nc(-c2ccccn2)cs1)c1ccc(Cl)s1 [IMB-T130] . Reported pIC50?
5.57
